Taken from patent US11225477B2.

experiment: in vivo; settings: SD, rat, po, 5 mg/kg
EXPERIMENTAL_READOUT: Tmax (min)
API: value field is a number in min; no unit string.

Challenge: Please give measured Tmax of the following entry: CC(C)(C)[C@@H](CC(=O)O)Nc1nc(-c2c[nH]c3ncc(F)cc23)nc(-c2ccco2)c1F [Example 61]
Response given: 90

###

Entries annotated with measured pEC50
system: virus H1N1 A/Weiss/43; test: microbe, parasite or virus in culture; assay type: cell-based; conditions: Influenza A virus, 120 h; MDCK cells, H1N1 A/Weiss/43, Scheme 2: 8 concentrations 50 nM to 0.023 nM, 5 days, CCK-8
Would you please state pEC50, meaning minus log10 of the concentration in mol/L, as a bare number?

Worked examples follow.
- COMPOUND: "O=C(O)C1C2CCC(CC2)C1Nc1cc(-c2cc3ccccc3s2)nc(-c2c[nH]c3ncc(F)cc23)n1 (racemic) [Example 17]"
  STUDY_SYSTEM: "virus H1N1 A/Weiss/43"
  EXPERIMENTAL_READOUT: "pEC50"
  NUMERIC_READOUT: 9.27
- COMPOUND: "O=C(O)C1C2CCC(CC2)C1Nc1cc(-c2ccccc2)nc(-c2c[nH]c3ncc(F)cc23)n1 (racemic) [Example 4]"
  STUDY_SYSTEM: "virus H1N1 A/Weiss/43"
  EXPERIMENTAL_READOUT: "pEC50"
  NUMERIC_READOUT: 9.70
- COMPOUND: "CC(C)n1ccc2c(N[C@H]3C4CCC(CC4)[C@@H]3C(=O)O)nc(-c3c[nH]c4ncc(F)cc34)nc21 [Example 78]"
  STUDY_SYSTEM: "virus H1N1 A/Weiss/43"
  EXPERIMENTAL_READOUT: "pEC50"
  NUMERIC_READOUT: 9.63
- COMPOUND: "O=C(O)C1C2CCC(CC2)C1Nc1cc(-c2cc3ccccc3o2)nc(-c2c[nH]c3ncc(F)cc23)n1 (racemic) [Example 16]"
  STUDY_SYSTEM: "virus H1N1 A/Weiss/43"
  EXPERIMENTAL_READOUT: "pEC50"
  NUMERIC_READOUT: 9.27
- COMPOUND: "O=C(O)C1C2CCC(CC2)C1Nc1nc(-c2c[nH]c3ncc(F)cc23)nc(-c2cc3ccccc3s2)c1F (racemic) [Example 55]"
  STUDY_SYSTEM: "virus H1N1 A/Weiss/43"
  EXPERIMENTAL_READOUT: "pEC50"
  NUMERIC_READOUT: 9.06

Challenge: Please give measured pEC50 of the following entry: O=C(O)C1C2CCC(CC2)C1Nc1nc(-c2c[nH]c3ncc(F)cc23)nc(-c2cc3ccccc3o2)c1F (racemic) [Example 54]
Response given: 9.58

Challenge: Please give measured pEC50 of the following entry: O=C(O)C1C2CCC(CC2)C1Nc1cc(-c2ccco2)nc(-c2c[nH]c3ncc(F)cc23)n1 (racemic) [Example 9]
Response given: 10.18

Challenge: Please give measured pEC50 of the following entry: Cn1ccc2c(NC3C4CCC(CC4)C3C(=O)O)nc(-c3c[nH]c4ncc(F)cc34)nc21 (racemic) [Example 65]
Response given: 9.18

###

assay: in vivo; conditions: SD, rat, po, 5 mg/kg
Entries annotated with measured AUC(0-inf)
API: value field is a number in ng·h/mL; no unit string.

Worked examples follow.
- COMPOUND: "O=C(O)C1C2CCC(CC2)C1Nc1nc(-c2c[nH]c3ncc(F)cc23)nc2ccccc12 (racemic)"
  MEASURE_UNIT: "ng·h/mL"
  AUC(0-inf): 10600
- COMPOUND: "O=C(O)C1C2CCC(CC2)C1Nc1cc(C2CC2)nc(-c2c[nH]c3ncc(F)cc23)n1 (racemic)"
  MEASURE_UNIT: "ng·h/mL"
  AUC(0-inf): 8330
- COMPOUND: "O=C(O)C1C2CCC(CC2)C1Nc1cc(-c2ccccc2)nc(-c2c[nH]c3ncc(F)cc23)n1 (racemic)"
  MEASURE_UNIT: "ng·h/mL"
  AUC(0-inf): 12800
- COMPOUND: "O=C(O)C1C2CCC(CC2)C1Nc1nc(-c2c[nH]c3ncc(F)cc23)nc2c1CCCC2 (racemic)"
  MEASURE_UNIT: "ng·h/mL"
  AUC(0-inf): 8180
- COMPOUND: "O=C(O)[C@H]1C2CCC(CC2)[C@@H]1Nc1cc(-c2ccco2)nc(-c2c[nH]c3nc(F)ccc23)n1"
  MEASURE_UNIT: "ng·h/mL"
  AUC(0-inf): 52800

In the following, a different compound is considered.
Challenge: Please give measured AUC(0-inf) of the following entry: O=C(O)C1C2CCC(CC2)C1Nc1cc(-c2cc3ccccc3s2)nc(-c2c[nH]c3ncc(F)cc23)n1 (racemic)
Response given: 8360

###

assay: in vivo; details: SD, rat, po, 5 mg/kg
EXPERIMENTAL_READOUT: Tmax

- COMPOUND: "Cc1nc2[nH]cc(-c3nc(NC4C5CCC(CC5)C4C(=O)O)cc(-c4ccccc4)n3)c2cc1F (racemic) [Example 80]"
  Tmax: "50 min"
- COMPOUND: "O=C(O)C1C2CCC(CC2)C1Nc1cc(-c2ccccc2)nc(-c2c[nH]c3ncc(F)cc23)n1 (racemic) [Example 4]"
  Tmax: "40 min"

Challenge: Please give measured Tmax of the following entry: O=C(O)C1C2CCC(CC2)C1Nc1cc(-c2cccc3c2oc2ccccc23)nc(-c2c[nH]c3ncc(F)cc23)n1 (racemic) [Example 18]
Response given: 120 min

Challenge: Please give measured Tmax of the following entry: O=C(O)C1C2CCC(CC2)C1Nc1cc(C2CC2)nc(-c2c[nH]c3ncc(F)cc23)n1 (racemic) [Example 68]
Response given: 25 min
